target: T1, DX-2400; assay: phage display selection and ELISA screening
T1 construct: Only the variable domains are printed (joined from rows r3-r12 and r17-r26); It was biotinylated for phage selection; also called DX-2400 IgG; fully human monoclonal anti-MMP-14 antibody
Value kind: binding result

Known results for binders:
539C-R0010-C06 (Fab, V domains shown, A Fab from the phage display library with a kappa light chain; Only the starts of the constant regions are printed) VH: EVQLLESGGGLVQPGGSLRLSCAASGFTFSSYNMAWVRQAPGKGLEWVSVIVPSGGLTGYADSVKGRFTISRDNSKNTLYLQMNSLRAEDTAVYYCARERGGFYSSGWYRYWFDPWGQGTLVTVSS VL: DIQMTQSPSSLSASVGDRVTITCRASQNINTFLNWYQQKPGKAPKLLIYGASSLQSGVPSRFSGSGSGTDFTLTISSLQPEDFATYYCQQSSDALVYNFGQGTKLEIK: binds
539C-M0021-E01 (Fab, V domains shown, It was tested as Fab on phage and as soluble Fab) VH: EVQLLESGGGLVQPGGSLRLSCAASGFTFSVYPMIWVRQAPGKGLEWVSYISSSGGQTWYADSVKGRFTISRDNSKNTLYLQMNSLRAEDTATYYCARGDDYDSSGPDYWGQGTLVTVSS VL: DIQMTQSPSSLSASEGDRITLTCRASQSISIYLNWYQQKPGRAPKLLMYAATTLQSGVPSRFSGSGSGTDFTLTISGLRPEDFATYYCQQSYDIPLTFGGGTKVEIKR: binds
539C-R0010-F06 (Fab, V domains shown, A Fab from the phage display library with a kappa light chain; Only the starts of the constant regions are printed) VH: EVQLLESGGGLVQPGGSLRLSCAASGFTFSDYHMSWVRQAPGKGLEWVSGISSSGGETFYADSVKGRFTISRDNSKNTLYLQMNSLRAEDTAVYYCASGSHRDGYNLGYFDYWGQGTLVTVSS VL: DIQMTQSPASLSASVGDRVTITCQASRDIGEYLNWYQQKAGKPPKLLISDATTLETGVPSRFSGTGSGTEFLFTISSVEPEDFATYYCQQYDDLTWISFGPGTRLDVK: binds
539C-R0010-E06 (Fab, V domains shown, A Fab from the phage display library with a lambda light chain; Only the starts of the constant regions are printed) VH: EVQLLESGGGLVQPGGSLRLSCAASGFTFSDYWMFWVRQAPGKGLEWVSGIGPSGGIISYADSVKGRFTISRDNSKNTLYLQMNSLRAEDTAVYYCAKYGDYVSGFDYWGQGTLVTVSS VL: QSALTQPASVSGSPGQSITISCTGTSSDVGGYKLVSWYQQHPGKVPKLIISEVSYRPSGVSNRFSGSKSGNAASLTISGLQAEDEADYYCSSYTSTSTWVFGGGTKLTVL: binds
539C-R0004-G04 (Fab, V domains shown, A Fab from the phage display library with a lambda light chain; Only the starts of the constant regions are printed; The VL is built from the FR/CDR columns because the joined LV-AA print (r109-r111) reads ADYEC where LV-FR3 reads ADYFC) VH: EVQLLESGGGLVQPGGSLRLSCAASGFTFSDYDMHWVRQAPGKGLEWVSGISPSGGWTWYADSVKGRFTISRDNSKNTLYLQMNSLRAEDTAVYYCARDWYSSGLDYWGQGTLVTVSS VL: QYELTQPPSVSVAPGQTARIICGGNDIGSKGVHWYHQKAGQAPVLLVYDNTDRPSGIPERFSGSNSGNTAALTITRVEAGDEADYFCQVWDSTGEHAVFGGGTKLTVL: binds

State recorded binding result for all listed binders.
1. 539C-R0010-F05 (Fab, V domains shown, A Fab from the phage display library with a lambda light chain; Only the starts of the constant regions are printed) VH: EVQLLESGGGLVQPGGSLRLSCAASGFTFSWYAMVWVRQAPGKGLEWVSGISPSGGLTSYADSVKGRFTISRDNSKNTLYLQMNSLRAEDTAVYYCARKQMSPDYYYGMDVWGQGTTVTVSS VL: QSVLTQPPSVSVAPGQTATISCEGDNIGSKSVHWYQQRPGQAPVLVVYDDYDRPSGIPERFSGFNSGNTATLTIYRVEAGDEADFYCQVRDSRTEERVFGGGTKLTVL
2. 539C-R0010-D06 (Fab, V domains shown, A Fab from the phage display library with a lambda light chain; Only the starts of the constant regions are printed (GQPKAAP)) VH: EVQLLESGGGLVQPGGSLRLSCAASGFTFSDYSMYWVRQAPGKGLEWVSYISSSGGNTEYADSVKGRFTISRDNSKNTLYLQMNSLRAEDTAMYYCATTPSIWLGDLLENGPYWGQGTLVTVSS VL: QYELTQPHSVSESPGKTVTISCTRSNGTIDNSFVQWYQQRPGSAPTTVIYEDTQRPSGVPDRFSGSIDSSSNSASLTISGLKTEDEADYYCQSYDSTNRGVFGGGTKLTVL
3. 539C-R0010-C05 (Fab, V domains shown, A Fab from the phage display library with a kappa light chain; Only the starts of the constant regions are printed) VH: EVQLLESGGGLVQPGGSLRLSCAASGFTFSGYGMGWVRQAPGKGLEWVSYIVPSGGATDYADSVKGRFTISRDNSKNTLYLQMNSLRAEDTAVYYCARAYYYDSSGFDIWGQGTMVTVSS VL: DIQMTQSPSSLSASVGDRVTITCLPSQDISVYLNWYQQKPGEAPKLLISATSDLQSGVPSRFGGSGYGTDFSLTITSLQREDFATYYCQQSYSLPFTFGGGTRVEIK

1. binds
2. binds
3. binds
